# System: human-CD45RO-ECD-His (human) (UniProt P08575)
# Assay protocol: ELISA, human-CD45RO-ECD-His-coated plates
Metric name: pEC50
Numbers only, as −log10 of the molar value.

Look up pEC50: anti-CD45 antibody clone 027 (antibody, V domains shown) VH: QVQLQQSAPELARPGASVRMSCKASGYTFTTYTMNWLTQRPGQGLEWIGYINPSSGYTEYNQKFKDKTSLTADTSSSTAYMQLSSLTSEHSAVYYCARASGYSSWFAYWGQGTLVTVSA VL: NIVMTQTPKFLLVSAGDRVTITCKASQSVNNDVGWYQQKPGQSPKLLIYYASNRYTGVPDRFTGSGYGTDFTFTISTVQAEDLAVYFCQQDYNSPLTFGAGTKLELK
10.13
